Experiment: Oral bioavailability in Sprague-Dawley rat at 25 mg/kg administered as single dose via gavage by LC-MS/MS method
Type: ADME, organism-based
Details: in vivo
test-readout: bioavailability (%)
Answer with a number only, understood to be in %.

Req: Given "CCN(CC)CC.Nc1ncnc2c1ncn2[C@@H]1O[C@H](CNS(=O)(=O)c2n[nH]c3cc(F)ccc3c2=O)[C@@H](O)[C@H]1O" , state its recorded bioavailability.
Resp: 2.1

----------
Experiment: Clearance in Sprague-Dawley rat at 2.5 mg/kg, iv administered as single dose via bolus injection by LC-MS/MS method
Assay type: ADME, organism-based
Conditions: in vivo
Can you tell me clearance for the items I'm about to list?
Give just the numeric value; L/h/kg need not be written.

Req: So what does the record say about clearance for "Nc1ncnc2c1ncn2[C@@H]1O[C@H](COS(=O)(=O)NC(=O)c2ccccc2O)[C@@H](O)[C@H]1O" ?
Resp: 0.294

Req: What value of measured clearance is listed for "CCN(CC)CC.Nc1ncnc2c1ncn2[C@@H]1O[C@H](CNS(=O)(=O)c2n[nH]c3cc(F)ccc3c2=O)[C@@H](O)[C@H]1O" ?
Resp: 0.534
